Tested on: MDA-N
ASSAY METHOD TEXT: NCI tumour cell line growth inhibition, 48 h
Activity calls are given as the source filed them. Rule as the data show it: active = GI50 up to about 1.1 µM and inactive = higher.
Return exactly one item of active, inactive

Worked examples, 5 molecules total:
NCC(O)CSCc1ccc(Cl)cc1 (configuration not stated) = inactive
O=C(N/N=C/c1ccc(Cl)cc1)c1cc(I)cc(I)c1O = inactive
Brc1c(C#CCC(c2ccccc2)(c2ccccc2)c2ccccc2)ccc(C#CCC(c2ccccc2)(c2ccccc2)c2ccccc2)c1Br = inactive
Cc1ccccc1C(=N)c1ccccc1Cc1cccc2ccccc12 = inactive
CCN(CC)CCN1C(=O)C(=O)N(c2cccc3ccccc23)C1=O = inactive

Just curious, what result did O=C1CC(c2cccc([N+](=O)[O-])c2)C2(C(=O)NC(=S)NC2=O)C(c2cccc([N+](=O)[O-])c2)C1 (configuration not stated) get here?
inactive

Just curious, what result did C[C@@H]1C[C@@H](O)[C@]2(O)O[C@@H]3C[C@@]4(C=O)[C@@H](CC[C@@H]5[C@@H]4CC[C@]4(C)[C@@H](C6=CC(=O)OC6)CC[C@]54O)C[C@H]3O[C@@H]2O1 [CALACTIN] get here?
active

###

Test system: TK-10
ASSAY METHOD TEXT: NCI tumour cell line growth inhibition, 48 h
Active and inactive are the calls of the source. Cut-off read from the data, not from the text of the source: active = GI50 up to about 1.1 µM and inactive = higher.
MEASURE: GI50

Look over these answered cases.
CCOC(=O)C1C(=S)NC(=O)C1C#N (stereo unspecified) = > 100 µM (inactive)
NNC(=O)CCC(=O)Nc1cc(Cl)c(Cl)cc1Cl = > 100 µM (inactive)
CC(C)CCOC(=O)NC(Nc1ccc(F)cc1)(C(F)(F)F)C(F)(F)F = 29.7 µM (inactive)
CN1CCS(=O)(=O)NC(Cc2ccccc2)C(=O)N2CCCC2C1=O (stereo unspecified) = > 100 µM (inactive)
COC1C2c3ccccc3C(C#N)(Cc3ccc4c(c32)OCO4)N1C(=O)c1ccccc1 (stereo unspecified) = > 100 µM (inactive)
C=CCCCCCCC#CCCCCCCCCCC[C@@H]1C(=O)O[C@H](C)[C@@H]1O.CCCCCCCCC#CCCCCCCCCCC[C@@H]1C(=O)O[C@H](C)[C@@H]1O = 15.7 µM (inactive)

Short answer please: GI50, TK-10, entry Cc1nc(-c2ccc([N+](=O)[O-])cc2)cn2c1nc1ccccc12
97.5 µM (inactive)

Short answer please: GI50, TK-10, entry Clc1ccc(C(OCn2ccnc2)c2nc3ccccc3[nH]2)c(Cl)c1 (stereo unspecified)
31.7 µM (inactive)

Short answer please: GI50, TK-10, entry O=C(/C=C/c1ccsc1)c1ccsc1
23.8 µM (inactive)

Short answer please: GI50, TK-10, entry O=C(c1ccccc1)c1ccc2c(c1)nc1n2C(c2c(Cl)cccc2Cl)SC1 (stereo unspecified)
> 100 µM (inactive)

Short answer please: GI50, TK-10, entry O=c1[nH]c(=O)n(C2OC(CO)C(O)C2O)cc1Oc1ccccc1 (stereo unspecified)
> 100 µM (inactive)

###

System: HOP-92
ASSAY METHOD TEXT: NCI tumour cell line growth inhibition, 48 h
Activity calls are given as the source filed them. Rule as the data show it: active = GI50 up to about 1.1 µM and inactive = higher.
MEASURE: GI50

Look over these answered cases.
C#Cc1cc(Br)c(OC(=O)C(C)(C)C)c(-c2cc(C#C)cc(Br)c2OC(=O)C(C)(C)C)c1 = 36.9 µM (inactive)
CC(=O)Nc1ccc2nc(-c3ccccn3)c(-c3ccccn3)nc2c1 = > 100 µM (inactive)

What GI50 value was documented for this compound, Cc1c(-c2nc(N)nc(C3CC3)c2C)nc(N)nc1C1CC1 ?
> 100 µM (inactive)

###

Tested on: SNB-75
ASSAY METHOD TEXT: NCI tumour cell line growth inhibition, 48 h
Calls of active or inactive are those of the source. Rule as the data show it: active = GI50 up to about 1.1 µM and inactive = higher.
MEASURE: GI50

Look over these answered cases.
Cc1cc(OP2(=O)NCc3ncccc3O2)ccc1Cl (stereo not drawn) = > 100 µM (inactive)
CC1=NN(c2cccc(Cl)c2)C2(SCC(=O)N2c2nc3ccccc3s2)/C1=C\c1ccccc1 (stereo not drawn) = 86.5 µM (inactive)
c1ccc2c(c1)Sc1ccccc1N2CC1CN2CCC1CC2 (stereo not drawn) = 1.75 µM (inactive)
Cc1cccc(/N=N/c2c(C)nn(C(=O)CC(=O)Nc3ccc(Cl)cc3)c2C)c1 = 9.51 µM (inactive)
CSc1c(C(=O)Nc2ccccc2)c(N)n(N)c(=O)c1C#N = > 100 µM (inactive)

What GI50 value was documented for this compound, Brc1c(C#CCC(c2ccccc2)(c2ccccc2)c2ccccc2)ccc(C#CCC(c2ccccc2)(c2ccccc2)c2ccccc2)c1Br ?
> 100 µM (inactive)

What GI50 value was documented for this compound, CCCNCCCC(NC(C)=O)C(=O)NCc1ccccc1 (stereo not drawn) ?
51.8 µM (inactive)

What GI50 value was documented for this compound, CSc1cc(Cl)c(C(=O)Nc2ccccc2)cc1S(=O)(=O)n1ccnc1O ?
> 100 µM (inactive)

###

Tested on: SF-295
ASSAY METHOD TEXT: NCI tumour cell line growth inhibition, 48 h
The source made the active and inactive calls. No stated cut-off is given here; in the data, active = GI50 up to about 1.1 µM and inactive = higher.
MEASURE: GI50

Look over these answered cases.
Cc1ccc(NC(=O)C2C(=O)C(=O)N(c3ccc(C)cc3)C2=O)cc1 (stereo not drawn) = > 100 µM (inactive)
Fc1ccccc1C1SCc2nc3ccccc3n21 (stereo not drawn) = 41.8 µM (inactive)

Now let's try a different one.
What GI50 value was documented for this compound, Cc1c(NC(=S)Nc2ccc([N+](=O)[O-])cc2)c(=O)n(-c2ccccc2)n1C ?
> 100 µM (inactive)

###

Tested on: NCI/ADR-RES
ASSAY METHOD TEXT: NCI tumour cell line growth inhibition, 48 h
Activity calls are given as the source filed them. No stated cut-off is given here; in the data, active = GI50 up to about 1.1 µM and inactive = higher. Numbered stars: 1 amine (or outer) side, 2 acyl side, 3 side chain; on linkers, the order of the positions; unused ones are H or OH. Square brackets hold non-standard residues; d marks the D form. Peptide text beside a SMILES is read from it. X55 = CC[C@H](C)[C@H](OC(=O)[C@@H](C)[C@@H](CC)N[*:1])C(=O)[*:2]; X31 = C[C@H](N[*:1])C(=O)C(C)(C)C(=O)[*:2]; NMeY = CN[C@@H](Cc1ccc(O)cc1)C(=O)O; NMeL = CN[C@@H](CC(C)C)C(=O)O; NMeV = CN[C@H](C(=O)O)C(C)C
Return exactly one item of Yes (active), No (inactive)

N#CI1OC(=O)c2ccccc21 = No
CC(=O)OCC1OC(OCC2OC(N3C(=S)N[C@H]([C@@H](O)[C@H](O)[C@H](O)CO)[C@H]3O)C(OC(C)=O)C(OC(C)=O)C2OC(C)=O)C(OC(C)=O)C(OC(C)=O)C1OC(C)=O (stereo partly drawn) = No

Shift focus to the following entry.
Just curious, what result did CC[C@H](C)[C@@H]1OC(=O)[C@@H](C)[C@@H](CC)NC(=O)[C@H](C)NC(=O)C(C)(C)C(=O)[C@H](C)NC(=O)[C@H](Cc2ccc(OC)cc2)N(C)C(=O)[C@H](C(C)C)N(C)C(=O)CNC(=O)[C@H](CC(C)C)N(C)C(=O)CNC1=O [DOLASTATIN 11] (cyclo(A[X55]G[NMeL]G[NMeV][NMeY](Me)[X31])) get here?
Yes

###

Test system: OVCAR-3
ASSAY METHOD TEXT: NCI tumour cell line growth inhibition, 48 h
Calls of active or inactive are those of the source. No stated cut-off is given here; in the data, active = GI50 up to about 1.1 µM and inactive = higher.
Return exactly one item of Y = active, N = inactive

Worked examples, 3 compounds total:
N#CCC(=O)c1cc(OCc2cc(OCc3ccc(Br)cc3)cc(OCc3ccc(Br)cc3)c2)cc(OCc2cc(OCc3ccc(Br)cc3)cc(OCc3ccc(Br)cc3)c2)c1 = N
NS(=O)(=O)c1ccc(Nc2c3ccccc3nc3c(C(=O)NCCO)cccc23)cc1 = Y
COc1ccc(C(=O)/C=C/c2ccc3c(c2)OCO3)c(OCc2ccccc2)c1 = N

Just curious, what result did CC(=O)CC(N)=O get here?
N

Just curious, what result did CC(=O)Nc1ccc2nc(-c3ccccn3)c(-c3ccccn3)nc2c1 get here?
N

Just curious, what result did CCOC(=O)C(=O)/C(=C\NC(=S)Nc1ccccc1Cl)C(=O)OCC get here?
N

Just curious, what result did S=C(Nc1ccccc1)N1N=C2c3ccccc3CC[C@H]2[C@@H]1c1ccccc1 get here?
N

Just curious, what result did CC1=C(C(=O)OCCc2ccc([N+](=O)[O-])cc2)C(c2ccccc2C(F)(F)F)C(C(=O)OC(C)C)=C(C)N1 (stereo not drawn) get here?
N

###

Tested on: K562
ASSAY METHOD TEXT: NCI tumour cell line growth inhibition, 48 h
Active and inactive are the calls of the source. Cut-off read from the data, not from the text of the source: active = GI50 up to about 1.1 µM and inactive = higher.
// values below are reported GI50

Look over these answered cases.
COC(=O)[C@]1(NC(=O)c2ccccc2)C[C@H]1C=O = > 100 µM (inactive)
CN(C)Cc1cc(O)c(O)c(CN(C)C)c1 = 33 µM (inactive)
CCOC(=O)/C=C(/C)Nc1nc2c(c(C(=O)OC)c1C#N)CCCC2 = > 100 µM (inactive)
CC(C)(C)c1ccc2c(c1)C#Cc1cc(C(C)(C)C)ccc1OCCCO2 = > 100 µM (inactive)
CN1CCN(Cn2nc(COc3ccc(Cl)cc3)n(/N=C/c3ccc(-c4ccc(Cl)cc4Cl)o3)c2=S)CC1 = 15.2 µM (inactive)

What GI50 value was documented for this molecule, COc1ccc(-c2cc(=O)c3ccc(O)cc3o2)c(OC)c1OC ?
29.6 µM (inactive)

What GI50 value was documented for this molecule, CC(=O)OCC1OC(OCC2OC(N3C(=S)N[C@H]([C@@H](O)[C@H](O)[C@H](O)CO)[C@H]3O)C(OC(C)=O)C(OC(C)=O)C2OC(C)=O)C(OC(C)=O)C(OC(C)=O)C1OC(C)=O (some centres not stated) ?
28.6 µM (inactive)
